// reported normalized growth per item
# methodSummary: chemical genetic growth profiling, strain panel (AID 1159580);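 note: tested at 20 µM; growth read once vehicle control cultures reached saturation at 30 °C; 1 = growth at the plate median or of vehicle wells; lower values mean less growth of the strain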
# measurementConditions: S. cerevisiae deletion strains, growth OD, locus YGR078C, strain PAC10, stronger effect = lower value
Screen size: about 5,500 compounds; about 2,000 (36%) were called active. Another 18% or so got no clear call; they are omitted. Some of the results follow.

compound: O=[N+]([O-])c1ccc(C2N(Cc3ccccc3)CCC3CCCCN32)cc1 (centres undefined)
normalized growth: 1.01
//
compound: CC(=O)[C@H]1CC[C@H]2[C@@H]3CC[C@H]4C[C@H](O)CC[C@]4(C)[C@H]3C(=O)C[C@]12C
normalized growth: 0.994
//
compound: CC(=O)SC1CC2=CC(=O)CC[C@]2(C)C2CC[C@@]3(C)C(CC[C@@]34CCC(=O)O4)C12 (some centres undefined)
normalized growth: 1.01
//
compound: COc1cc(OC)cc(OC)c1
normalized growth: 1.01
//
compound: CC(C(=O)O)c1ccc(CC2CCCC2=O)cc1 (centres undefined)
normalized growth: 1.02
//
compound: C[C@]12CCC3C(CC[C@H]4C[C@@H](Cl)CC[C@]34C)C1CCC2=O (some centres undefined)
normalized growth: 0.951
//
compound: CC(=O)CSc1nsc(SCC(C)=O)c1C#N
normalized growth: 0.997
//
compound: Cn1nnnc1SCC1=C(C(=O)O)N2C(=O)C(NC(=O)C(OC=O)c3ccccc3)C2SC1 (centres undefined)
normalized growth: 0.994
//
compound: O=c1nc(-c2ccccc2)nc(-c2ccccc2)[nH]1
normalized growth: 1
//
compound: CNCCNS(=O)(=O)c1cccc2cnccc12
normalized growth: 1.02
//
compound: CCOC(=O)c1c(Nc2ccccc2)sc([N+](=O)[O-])c1N
normalized growth: 0.985
//
compound: C#CCN1C(C)=C(C(=O)OC)C(c2cccc([N+](=O)[O-])c2)C(C(=O)OCC)=C1C (centres undefined)
normalized growth: 0.996
//
compound: NCCNC(=O)c1ncsc1-c1cccc(F)c1
normalized growth: 0.989
//
compound: CCOC(=O)C1=C(C)NC(C)=C(C(=O)OC)C1c1cccc([N+](=O)[O-])c1 (centres undefined)
normalized growth: 0.977
//
compound: N#CC(C#N)=CNc1cc(C(F)(F)F)ccc1N1CCCCC1
normalized growth: 0.987
//
compound: CN1CCN(C(c2ccccc2)c2ccccc2)CC1
normalized growth: 0.998
//
compound: COc1cc(O)c(C(=O)O)c(O)c1
normalized growth: 1.01
//
compound: Cn1c(=O)[nH]c(=O)c2[nH]cnc21
normalized growth: 0.996
//
compound: CCCCCC(CC(=O)NO)C(=O)NC(C(=O)N1CCCC1CO)C(C)C (centres undefined)
normalized growth: 0.976
//
compound: S=c1nc(-c2ccccc2)[nH][nH]1
normalized growth: 0.988
//
compound: C[C@]12CCC3C(CC[C@H]4C[C@@H](O)CC[C@]34C)C1CCC2=O (some centres undefined)
normalized growth: 0.843
//
compound: Fc1ccc(C(c2ccc(F)cc2)N2CCN(C/C=C/c3ccccc3)CC2)cc1
normalized growth: 0.976
//
compound: CC(=O)CC(C)=Nc1ccc(C(F)(F)F)cc1
normalized growth: 0.981
//
compound: C[N+](C)(C)CC=O
normalized growth: 1.01

Taken from PubChem BioAssay AID1159580.
